Data origin: patent US7687644B2

target: 11β-HSD1 (Mus musculus, UniProt P50172); construct: endogenous in cells; assay: Cellular assay, 11β-HSD1 activity in differentiated 3T3-L1 cells; conditions: 4 hour pre-incubation, read-out: [C2] HSD1 cellular 3T3-L1 Score
Sequence (P50172 whole entry): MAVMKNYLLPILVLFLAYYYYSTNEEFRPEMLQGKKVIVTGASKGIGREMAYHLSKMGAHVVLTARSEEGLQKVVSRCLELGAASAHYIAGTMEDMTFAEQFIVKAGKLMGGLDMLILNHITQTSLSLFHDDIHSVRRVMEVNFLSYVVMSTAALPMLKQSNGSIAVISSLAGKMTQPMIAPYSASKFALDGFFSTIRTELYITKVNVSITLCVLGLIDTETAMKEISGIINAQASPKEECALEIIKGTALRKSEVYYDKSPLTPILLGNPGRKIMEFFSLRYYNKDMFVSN
pIC50: −log10 of the molar value.
Listed molecules paired with reported pIC50

Challenge: Consider the molecule shown here: O=C1C(Cc2cc(F)cc(C(F)(F)F)c2)CCN1C1C2CC3CC(C2)CC1C3 (stereo not drawn) What is its recorded pIC50?
Response given: 5.00 to 6.00

Challenge: What do we get for O=C1C(Cc2cccc(Br)c2)CCN1C1C2CC3CC(C2)CC1C3 (stereo not drawn) ?
Response given: > 6.00

Challenge: What do we get for O=C1C(Cc2cccc(OC(F)(F)F)c2)CCN1C1C2CC3CC(C2)CC1C3 (stereo not drawn) ?
Response given: > 6.00

Challenge: What do we get for Cc1cccc(C)c1CC1(C)CCN(C2C3CC4CC(C3)CC2C4)C1=O (stereo not drawn) ?
Response given: < 5.00

Challenge: What do we get for CC1(Cc2ccccc2)CCN(C2C3CC4CC(C3)CC2C4)C1=O (stereo not drawn) ?
Response given: > 6.00

Continuing:
Challenge: Consider the molecule shown here: Cc1cccc(CC2CCCN(C3C4CC5CC(C4)CC3C5)C2=O)c1F (stereo not drawn) What is its recorded pIC50?
Response given: > 6.00

Challenge: What do we get for Cc1cccc(C)c1CC1CCCN(C2C3CC4CC(C3)CC2C4)C1=O (stereo not drawn) ?
Response given: < 5.00

Challenge: What do we get for COc1cc(CC2(C)CCN(C3C4CC5CC(C4)CC3C5)C2=O)cc(OC)c1 (stereo not drawn) ?
Response given: > 6.00

Challenge: What do we get for Cc1cc(C)cc(CC2CCCN(C3C4CC5CC(C4)CC3C5)C2=O)c1 (stereo not drawn) ?
Response given: < 5.00

----------
Molecular target: 11β-HSD1 (Mus musculus, UniProt P50172)
Construct: endogenous in cells
Experiment: Cellular assay, 11β-HSD1 activity in differentiated 3T3-L1 cells
Details: 4 hour pre-incubation, read-out: [C2] HSD1 cellular 3T3-L1 Score
Protocol: The effects on 11β-HSD1 activity was measured in differentiated 3T3-L1 cells and rat hepatocytes. Medium was refreshed twice a week. One hour later, the medium was extracted on Extrelut^3-columns with 15 ml diethyl ether and the extract was analysed by HPLC as described above. As for the enzymatic assays, the compounds to be tested were taken from a stock is solution and tested at a final concentration ranging from −10^−5M to 3·10^−9M.
pIC50: −log10 of the molar value.
Listed molecules paired with reported pIC50

Challenge: Consider the molecule shown here: COc1cccc(CC2CCCN(C3C4CC5CC(C4)CC3C5)C2=O)c1 (stereo not drawn) [Compound 21] What is its recorded pIC50?
Response given: > 6.00

Continuing:
Challenge: Consider the molecule shown here: O=C1N(C2C3CC4CC(C3)CC2C4)C2CCC1(c1ccccc1)CC2 (stereo not drawn) [Compound 34] What is its recorded pIC50?
Response given: < 5.00

Challenge: What do we get for CC1(Cc2ccc(OC(F)(F)F)cc2)CCN(C2C3CC4CC(C3)CC2C4)C1=O (stereo not drawn) [Compound 17] ?
Response given: > 6.00

Challenge: What do we get for COc1cccc(CC2CCN(C3C4CC5CC(C4)CC3C5)C2=O)c1 (stereo not drawn) [Compound 3] ?
Response given: > 6.00

Challenge: What do we get for O=C1C(Cc2ccc(Cl)cc2)CCN1C1C2CC3CC(C2)CC1C3 (stereo not drawn) [Compound 13] ?
Response given: < 5.00

Challenge: What do we get for Cc1cc(C)cc(CC2CCN(C3C4CC5CC(C4)CC3C5)C2=O)c1 (stereo not drawn) [Compound 11] ?
Response given: > 6.00

Challenge: What do we get for Cc1ccc(CC2CCN(C3C4CC5CC(C4)CC3C5)C2=O)cc1 (stereo not drawn) [Compound 16] ?
Response given: > 6.00

Challenge: What do we get for CC1(Cc2ccc(F)cc2)CCN(C2C3CC4CC(C3)CC2C4)C1=O (stereo not drawn) [Compound 30] ?
Response given: > 6.00

Challenge: What do we get for Cc1cccc(CC2CCN([C@@H]3CC[C@]4(O)CC5CC4[C@H]3C5)C2=O)c1F (stereo partly drawn) [Compound 39] ?
Response given: > 6.00

----------
Listed compounds paired with reported IC50
Target: 11β-HSD2 (Homo sapiens, UniProt P80365)
Sequence (P80365 1-405): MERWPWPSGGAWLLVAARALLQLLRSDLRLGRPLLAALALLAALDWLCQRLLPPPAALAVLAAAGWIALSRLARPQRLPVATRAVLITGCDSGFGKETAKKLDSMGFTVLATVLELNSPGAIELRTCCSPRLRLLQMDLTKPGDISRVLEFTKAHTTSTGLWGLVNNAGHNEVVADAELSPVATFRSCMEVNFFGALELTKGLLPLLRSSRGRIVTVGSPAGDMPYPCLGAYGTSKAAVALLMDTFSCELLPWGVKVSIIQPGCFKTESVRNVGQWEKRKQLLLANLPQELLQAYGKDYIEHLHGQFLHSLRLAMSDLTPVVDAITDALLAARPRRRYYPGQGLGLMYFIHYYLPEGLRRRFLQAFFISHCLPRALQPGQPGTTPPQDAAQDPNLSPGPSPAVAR
Assay: Cellular assay, 11β-HSD2 activity in HepG2 cells
Type: cell-based
Parameters: endogenous in cells; host or cells: HepG2 (ATCC HB-8065)
Details: 4 hour pre-incubation, read-out: [C2] HSD2 cellular HepG2 Score

Consider the following illustrative entries.
Challenge: Kindly state the measured IC50 obtained for Cc1cccc(CC2(C)CCN(C3C4CC5CC(C4)CC3C5)C2=O)c1F (centres unmarked) with 11β-HSD2 (Homo sapiens, UniProt P80365).
Response given: > 10 µM

Challenge: What do we get for O=C1C(Cc2ccc(Cl)cc2)CCN1C1C2CC3CC(C2)CC1C3 (centres unmarked) ?
Response given: > 10 µM

Challenge: What do we get for O=C1C(Cc2ccccc2)CCN1[C@@H]1CC[C@]2(O)CC3CC2[C@H]1C3 (some centres unmarked) ?
Response given: > 10 µM

Challenge: What do we get for COc1cccc(CC2CCN(C3C4CC5CC(C4)CC3C5)C2=O)c1 (centres unmarked) ?
Response given: > 10 µM

Challenge: What do we get for COc1cc(CC2CCN(C3C4CC5CC(C4)CC3C5)C2=O)cc(OC)c1 (centres unmarked) ?
Response given: > 10 µM

Continuing:
Challenge: Kindly state the measured IC50 obtained for Cc1ccc(CC2CCN(C3C4CC5CC(C4)CC3C5)C2=O)cc1 (centres unmarked) with 11β-HSD2 (Homo sapiens, UniProt P80365).
Response given: > 10 µM

Challenge: What do we get for Cc1cccc(CC2(C)CCN([C@@H]3CC[C@]4(O)CC5CC4[C@H]3C5)C2=O)c1F (some centres unmarked) ?
Response given: 1 to 10 µM

Challenge: What do we get for CC1(Cc2ccc(F)cc2)CCN(C2C3CC4CC(C3)CC2C4)C1=O (centres unmarked) ?
Response given: > 10 µM

----------
biological target: 11β-HSD2 (Homo sapiens, UniProt P80365); assay: Cellular assay, 11β-HSD2 activity in HepG2 cells; assay type: cell-based; set-up: endogenous in cells; host or cells: HepG2 (ATCC HB-8065); conditions: 4 hour pre-incubation, read-out: [C2] HSD2 cellular HepG2 Score
pIC50: −log10 of the molar value.
Listed compounds paired with reported pIC50

Consider the following illustrative entries.
Challenge: Kindly state the measured pIC50 obtained for O=C1C(Cc2ccc(F)cc2)CCN1C1C2CC3CC(C2)CC1C3 (stereo not drawn) [Compound 14] with 11β-HSD2 (Homo sapiens, UniProt P80365).
Response given: < 5.00

Challenge: What do we get for COc1cccc(CC2(C)CCN(C3C4CC5CC(C4)CC3C5)C2=O)c1 (stereo not drawn) [Compound 29] ?
Response given: 5.00 to 6.00

# input for lookup
Challenge: Kindly state the measured pIC50 obtained for Cc1cccc(CC2CCN(C3C4CC5CC(C4)CC3C5)C2=O)c1F (stereo not drawn) [Compound 1] with 11β-HSD2 (Homo sapiens, UniProt P80365).
Response given: < 5.00
